System: human peripheral blood mononuclear cells (PBMCs)
Assay: Human PBMC activation assay, cytokine levels (IL-10, IL-6, MCP-1, TNF-α) in supernatant after 24 hours (Example 9)
Settings: human PBMC supernatant after 24 hours; 40 μM oligonucleotide
MEASURED_METRIC: Levels of TNF-α (pg/mL)

substance="830025 (antisense TTTGTAAATCGAAAGC; 3-10-3 cEt gapmer, further chemistry not given here) [compound 830025]" measured_metric="Levels of TNF-α" recorded_value=7.6
substance="829994 (GGAGGCAGGGCCGCGA; 3-10-3 cEt gapmer, further chemistry not given here) [compound 829994]" measured_metric="Levels of TNF-α" recorded_value=32.3
substance="830121 (AGAATCAAGCCCTGGC; 3-10-3 cEt gapmer, further chemistry not given here) [compound 830121]" measured_metric="Levels of TNF-α" recorded_value=9.4
substance="798781 (CGTAAGATTCACAGCA; 3-10-3 cEt gapmer, further chemistry not given here) [compound 798781]" measured_metric="Levels of TNF-α" recorded_value=6.3
substance="736697 (antisense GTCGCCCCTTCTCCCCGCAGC; chemistry not fully specified) [compound 736697]" measured_metric="Levels of TNF-α" recorded_value=28.1
substance="790615 (CCAATGAGAATGCTTC; 3-10-3 cEt gapmer, further chemistry not given here) [compound 790615]" measured_metric="Levels of TNF-α" recorded_value=4.8
substance="830037 (antisense CTATTGGCTGATCTGG; 3-10-3 cEt gapmer, further chemistry not given here) [compound 830037]" measured_metric="Levels of TNF-α" recorded_value=16.6
